- Measured on: T1, Rat CTGF (Rattus norvegicus, UniProt Q9R1E9)
- T1 construct: purchased R&D Systems
- T1 sequence (Q9R1E9 25-347): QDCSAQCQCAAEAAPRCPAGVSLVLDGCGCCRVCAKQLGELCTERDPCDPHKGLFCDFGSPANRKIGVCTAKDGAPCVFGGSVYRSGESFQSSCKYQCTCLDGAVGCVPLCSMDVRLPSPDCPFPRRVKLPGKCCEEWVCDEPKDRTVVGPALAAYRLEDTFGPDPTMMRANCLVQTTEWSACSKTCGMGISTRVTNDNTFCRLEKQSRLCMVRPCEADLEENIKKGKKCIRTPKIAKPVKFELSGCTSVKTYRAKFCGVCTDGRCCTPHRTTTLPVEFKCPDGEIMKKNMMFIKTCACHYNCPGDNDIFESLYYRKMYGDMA
- Experimental details: SPR binding kinetics and affinity, rat CTGF
- Condition description: 25° C., 1:1 binding model
Here, each record is paired with measured Rat CTGF kon data.
Note: unit M⁻¹ s⁻¹ is implicit; provide only the numeric part.

SEQ ID NO: 24: optimized CTGF-binding hNGAL lipocalin mutein (protein, lipocalin mutein) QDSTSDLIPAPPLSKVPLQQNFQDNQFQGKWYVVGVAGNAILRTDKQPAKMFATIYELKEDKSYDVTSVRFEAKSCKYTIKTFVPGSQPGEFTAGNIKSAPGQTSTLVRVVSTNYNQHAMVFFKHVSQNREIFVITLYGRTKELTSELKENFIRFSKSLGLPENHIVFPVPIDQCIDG : 138000

Consider the record given below.
Entry under review: SEQ ID NO: 22: optimized CTGF-binding hNGAL lipocalin mutein (protein, lipocalin mutein) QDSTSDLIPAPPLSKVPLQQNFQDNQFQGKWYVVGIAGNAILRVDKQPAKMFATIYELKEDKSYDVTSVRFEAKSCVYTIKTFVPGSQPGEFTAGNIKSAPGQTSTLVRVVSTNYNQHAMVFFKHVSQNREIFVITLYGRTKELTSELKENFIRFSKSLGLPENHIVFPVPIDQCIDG . Reported Rat CTGF kon? 181000

Provenance of the data: patent US20240228562A1
